studyTarget: thromboxane synthetase from rabbit platelet microsomes (Oryctolagus cuniculus)
Sequence (G1TAZ9 1-530): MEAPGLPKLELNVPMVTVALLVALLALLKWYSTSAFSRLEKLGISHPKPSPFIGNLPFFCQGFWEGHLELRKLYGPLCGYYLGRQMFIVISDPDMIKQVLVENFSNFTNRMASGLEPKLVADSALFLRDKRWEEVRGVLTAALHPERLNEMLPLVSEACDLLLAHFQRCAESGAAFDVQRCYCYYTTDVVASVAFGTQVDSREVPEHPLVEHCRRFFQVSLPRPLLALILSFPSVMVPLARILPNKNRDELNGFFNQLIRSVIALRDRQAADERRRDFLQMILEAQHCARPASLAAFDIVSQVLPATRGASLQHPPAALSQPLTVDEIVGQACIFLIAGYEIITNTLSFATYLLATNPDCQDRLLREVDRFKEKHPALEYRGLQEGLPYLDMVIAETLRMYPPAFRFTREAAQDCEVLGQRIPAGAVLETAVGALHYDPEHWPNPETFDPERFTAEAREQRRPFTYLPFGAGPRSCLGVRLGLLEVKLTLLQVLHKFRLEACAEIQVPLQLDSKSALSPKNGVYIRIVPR
measurementLabel: IC50 (nM)

{"recordSmiles": "CC(=Cc1ccc(Cn2ccnc2)cc1)C(=O)O", "uom": "nM", "reportedMeasurement": 4}
